# Assay explanation: qHTS assay to identify small molecule antagonists of the estrogen related receptor signaling pathway with the pleiotropic PPARgamma coactivator (PGC) from Tox21 10K library (AID 1224841); note: actives are mostly falling curves and most rising ones were filed inactive; nearly all actives have a fitted effect of over 50% in size
# Stated conditions: PGC/ERR reporter cell line, ONE-Glo luciferase, 18 h; series mostly up to 92.4 µM
Inconclusive results are not listed. Activity calls are given as the source filed them. The rule behind the calls is not given here.
Possible outcomes: TRUE for active, FALSE for inactive

Molecule	Group label
CCCOC(C(=O)OC1CCN(C)CC1)(c1ccccc1)c1ccccc1	FALSE
COc1ccc(C(=O)c2ccc(OC)cc2O)c(O)c1	FALSE
COc1ccc(C)cc1[N+](=O)[O-]	FALSE
CCCn1cnc2c1c(=O)n(CCCCC(C)=O)c(=O)n2C	FALSE
CCCCCCOC(=O)NC(=N)c1ccc(NCc2nc3cc(C(=O)N(CCC(=O)OCC)c4ccccn4)ccc3n2C)cc1	TRUE
CCN(CC)c1ccc2c(-c3ccccc3C(=O)O)c3ccc(=[N+](CC)CC)cc-3oc2c1	TRUE
CN1CCC(=C2c3ccccc3Sc3ccccc32)CC1	FALSE
CCc1cc(C2=C(C(=O)O)N(c3ccccc3C(F)(F)F)S(=O)(=O)c3ccccc32)cc2c1OCO2	TRUE
C[C@@H](c1ncncc1F)C(O)(Cn1cncn1)c1ccc(F)cc1F (stereo not given in full)	FALSE
Nc1cccc([N+](=O)[O-])c1	FALSE
OC(C#CCN1CCCC1)(c1ccccc1)c1ccccc1	FALSE
CCCCCCc1ccc(-c2ccc(C#N)cc2)cc1	FALSE
C=CCOC(=O)CCC1CCCCC1	FALSE
CC(C)OC(=O)C(C)N(C(=O)c1ccccc1)c1ccc(F)c(Cl)c1 (stereo not given)	TRUE
CN(C)CCOC(c1ccccc1)c1ccc(Br)cc1 (stereo not given)	FALSE

* * *

# Tested system: Peroxisome proliferator-activated receptor gamma (Homo sapiens)
# Assay explanation: qHTS assay to identify small molecule agonists of the peroxisome proliferator-activated receptor gamma (PPARg) signaling pathway (AID 743094)
# Stated conditions: HEK293H PPARg-UAS-bla, beta-lactamase FRET ratio, 17 h; series mostly up to 57 µM
Results filed as inconclusive are left out. Active and inactive are the calls of the source. Calls come from the whole dose curve; as a rule, active = well fitted activation curve with a large enough effect in the signal ratio in the repeat runs (not every such curve was filed as active); inconclusive = weak or mixed curves, or effect the other way; inactive = no such curve, though single readings can be large or run the other way; the % refers to the signal ratio.

Substance smiles	outcome
Nc1cccc(S(=O)(=O)c2cccc(N)c2)c1	inactive
CCOC(=O)c1cccnc1	inactive
CC(C)(COC(=O)c1ccccc1)COC(=O)c1ccccc1	inactive

* * *

# Assay explanation: qHTS RealTime-Glo MT Cell Viability Assay in HEK293 cells - 8 hour (AID 1224887); note: top concentration of the series differs between compounds; nearly all actives have a fitted effect of over 50% in size
# Stated conditions: RealTime-Glo luminescence; series mostly up to 76.8 µM
Inconclusive results are not listed. The source made the active and inactive calls. Calls come from the whole dose curve; as a rule, active = well fitted cell-killing curve with a large enough effect in the repeat runs; inconclusive = weak or mixed curves, or effect the other way; inactive = flat fitted curve, though single readings scatter.
Readout name: outcome

Substance smiles	Readout name	Observed measurement
COc1cc(Cl)ccc1Oc1ccc(Cl)cc1Cl	outcome	inactive
CCNc1cc(O)ccc1C	outcome	inactive
O=[N+]([O-])c1ccc2[nH]ncc2c1	outcome	inactive
C#Cc1cccc(Nc2ncnc3cc(OCCOC)c(OCCOC)cc23)c1	outcome	inactive
O=C(NCCO[N+](=O)[O-])c1cccnc1	outcome	inactive
CCCCCCc1ccc(-c2ccc(C#N)cc2)cc1	outcome	inactive

* * *

# Assay explanation: qHTS assay to identify small molecule antagonists of the estrogen related receptor (ERR) signaling pathway from Tox21 library (AID 1224848); note: nearly all actives have a fitted effect of over 50% in size
# Stated conditions: ERR reporter cell line, luciferase antagonist mode, 18 h; series mostly up to 92.4 µM
Inconclusive results are not listed. Calls of active or inactive are those of the source. Calls come from the whole dose curve; as a rule, active = well fitted inhibition curve with a large enough effect in the repeat runs; inconclusive = weak or mixed curves; inactive = no such curve, though single readings can be large or run the other way.
Possible outcomes: active, inactive

Compound	Group label
O=C(O)c1ccc(-n2nc(-c3ccccc3O)nc2-c2ccccc2O)cc1	active
COCCCN1CCC(NC(=O)c2cc(Cl)c(N)c3c2OCC3)CC1	inactive
CC(C)OC(=O)C(C)N(C(=O)c1ccccc1)c1ccc(F)c(Cl)c1 (centres undefined)	active
O=C(Nc1ccc(S(=O)(=O)N2CCOCC2)cc1)c1cc(Cl)ccc1NS(=O)(=O)c1ccc(Cl)s1	inactive
O=S(=O)(Oc1ccc(Cl)cc1)c1ccccc1	inactive
COc1cc(Cl)ccc1Oc1ccc(Cl)cc1Cl	inactive
C=CCOC(=O)CCC1CCCCC1	inactive
CCc1cc(C2=C(C(=O)O)N(c3ccccc3C(F)(F)F)S(=O)(=O)c3ccccc32)cc2c1OCO2	active
NC(=O)C(c1ccccc1)(c1ccccc1)[C@@H]1CCN(CCc2ccc3c(c2)CCO3)C1	inactive
OC[C@H]1O[C@@H](OCCc2ccc(O)cc2)[C@H](O)[C@@H](O)[C@@H]1O	inactive
CCC(C)(C)CC	inactive
COc1ccc(C(=O)N2CCN(CC(=O)N3CCOCC3)CC2)cc1	inactive
O=[N+]([O-])c1cccc(S(=O)(=O)O)c1	active
CCN(CC)CCNc1ccc(CNC=O)c2sc3ccc(OC)cc3c(=O)c12	active
CCCCOC(=O)CCCCCCCC(=O)OCCCC	inactive
CN(C)CCCN1c2ccccc2Sc2ccccc21	inactive
CN(C)c1ccc(C(c2ccccc2)c2ccc(N(C)C)cc2)cc1	active
CCCn1cnc2c1c(=O)n(CCCCC(C)=O)c(=O)n2C	inactive
COc1cc2nc(N(C)CCCNC(=O)C3CCCO3)nc(N)c2cc1OC (centres undefined)	active
